SUBJECT_OF_TEST: T1, recombinant human full-length TDP-43 (TAR DNA-binding protein 43), soluble (human, UniProt Q13148 1-414)
T1 construct: Used on Luminex beads, coated on ELISA plates, and immobilized or injected in SPR; also called FL TDP-43; TDP-43 protein
TEST_DESCRIPTION: SPR 8K, immobilized soluble TDP-43
Listing of recorded pKd by entry.
Reminder that pKd means the negative base-10 logarithm of the concentration expressed in mol/L.

# BINDER, pKd
measured = [
    ("hACI-7069-633B12-Ab1_H20L19 (IgG4) (antibody, V domains shown) VH: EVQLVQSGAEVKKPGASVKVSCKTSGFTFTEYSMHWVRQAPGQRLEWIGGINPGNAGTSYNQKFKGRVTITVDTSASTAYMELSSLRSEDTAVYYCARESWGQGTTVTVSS VL: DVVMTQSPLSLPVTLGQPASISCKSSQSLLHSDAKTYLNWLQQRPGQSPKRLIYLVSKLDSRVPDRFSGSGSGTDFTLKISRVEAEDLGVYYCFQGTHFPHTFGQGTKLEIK", 9.16),
]

Kindly consider the entry below.
Input hACI-7069-633B12-Ab1_H15L14 (IgG4) (antibody, V domains shown) VH: QVQLVQSGAEVKKPGASVKVSCKASGFTFTEYSMHWVRQAPGQRLEWMGGINPGNAGTSYNQKFKGRVTITVDTSASTAYMELSSLRSEDTAVYYCARESWGQGTTVTVSS VL: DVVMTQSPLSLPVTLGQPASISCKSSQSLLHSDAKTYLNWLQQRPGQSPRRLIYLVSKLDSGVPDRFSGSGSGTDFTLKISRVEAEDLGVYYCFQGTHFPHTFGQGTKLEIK . Output pKd: 8.92
